Values compiled from patent US4966900A.

system: S. marcescens GN10857; assay: MIC; details: Serratia marcescens, GN10857, S. marcescens GN10857; Table 5
quantity_name: MIC (µg/mL)

compound	meas_value
CC(C)(ON=C(C(=O)NC1C(=O)N2C(C(=O)O)=C(CSc3c4c(nc5nc(C(=O)O)nn35)CCC4)CSC12)c1csc(N)n1)C(=O)NNC(=O)c1ccc(O)c(O)c1 (centres unmarked)	0.05
Cc1cc(SCC2=C(C(=O)O)N3C(=O)C(NC(=O)C(=NOC(C)(C)C(=O)NNC(=O)c4ccc(O)c(O)c4)c4csc(N)n4)C3SC2)n2ncnc2n1 (centres unmarked)	0.39
CC(C)(ON=C(C(=O)NC1C(=O)N2C(C(=O)O)=C(CSc3c4c(nc5c(C(=O)O)cnn35)CCC4)CSC12)c1csc(N)n1)C(=O)NNC(=O)c1ccc(O)c(O)c1 (centres unmarked)	0.2
Cc1nc2c(C(=O)O)cnn2c(SCC2=C(C(=O)O)N3C(=O)C(NC(=O)C(=NOC(C)(C)C(=O)NNC(=O)c4ccc(O)c(O)c4)c4csc(N)n4)C3SC2)c1C (centres unmarked)	0.1
Cc1nc2nc(C(=O)O)cc(SCC3=C(C(=O)O)N4C(=O)C(NC(=O)C(=NOC(C)(C)C(=O)NNC(=O)c5ccc(O)c(O)c5)c5csc(N)n5)C4SC3)n2n1 (centres unmarked)	0.2
Cc1nc2ncnn2c(SCC2=C(C(=O)O)N3C(=O)C(NC(=O)C(=NOC(C)(C)C(=O)NNC(=O)c4ccc(O)c(O)c4)c4csc(N)n4)C3SC2)c1C (centres unmarked)	0.2
CC(C)(ON=C(C(=O)NC1C(=O)N2C(C(=O)O)=C(CSc3ccnc4ncnn34)CSC12)c1csc(N)n1)C(=O)NNC(=O)c1ccc(O)c(O)c1 (centres unmarked)	0.39
Cc1cc(SCC2=C(C(=O)O)N3C(=O)C(NC(=O)C(=NOC(C)(C)C(=O)NNC(=O)c4ccc(O)c(O)c4)c4csc(N)n4)C3SC2)n2ncc(C(=O)O)c2n1 (centres unmarked)	0.1
CC(C)(ON=C(C(=O)NC1C(=O)N2C(C(=O)O)=C(CSc3c4c(nc5ncnn35)CCC4)CSC12)c1csc(N)n1)C(=O)NNC(=O)c1ccc(O)c(O)c1 (centres unmarked)	0.39
Cc1cc(SCC2=C(C(=O)O)N3C(=O)C(NC(=O)C(=NOC(C)(C)C(=O)NNC(=O)c4ccc(O)c(O)c4)c4csc(N)n4)C3SC2)n2nnnc2n1 (centres unmarked)	0.39
Cc1nc2nc(C(=O)O)nn2c(SCC2=C(C(=O)O)N3C(=O)C(NC(=O)C(=NOC(C)(C)C(=O)NNC(=O)c4ccc(O)c(O)c4)c4csc(N)n4)C3SC2)c1C (centres unmarked)	0.1

---

system: E. cloacae 5D52-2; test: MIC; conditions: Enterobacter cloacae, 5D522
Reported MIC values follow for various molecules
quantity_name: MIC (µg/mL)

molecule	meas_value
Cc1cc(SCC2=C(C(=O)O)N3C(=O)C(NC(=O)C(=NOC(C)(C)C(=O)NNC(=O)c4ccc(O)c(O)c4)c4csc(N)n4)C3SC2)n2ncc(C(=O)O)c2n1 (centres unmarked) [Example 25]	0.39
Cc1nc2nc(C(=O)O)cc(SCC3=C(C(=O)O)N4C(=O)C(NC(=O)C(=NOC(C)(C)C(=O)NNC(=O)c5ccc(O)c(O)c5)c5csc(N)n5)C4SC3)n2n1 (centres unmarked) [Example 37]	0.1
Cc1cc(SCC2=C(C(=O)O)N3C(=O)C(NC(=O)C(=NOC(C)(C)C(=O)NNC(=O)c4ccc(O)c(O)c4)c4csc(N)n4)C3SC2)n2ncnc2n1 (centres unmarked) [Example 12]	0.2
CC(C)(ON=C(C(=O)NC1C(=O)N2C(C(=O)O)=C(CSc3c4c(nc5ncnn35)CCC4)CSC12)c1csc(N)n1)C(=O)NNC(=O)c1ccc(O)c(O)c1 (centres unmarked) [Example 36]	0.2
CC(=O)Oc1ccc(C(=O)NNC(=O)C(C)(C)ON=C(C(=O)NC2C(=O)N3C(C(=O)O)=C(CSc4ccnc5nc(C(=O)O)nn45)CS[C@H]23)c2csc(N)n2)cc1OC(C)=O (some centres unmarked) [Example 46]	0.39
